method: amyloid nucleation score (Sup35N fusion, yeast selection) (log enrichment); library NNK3; higher = more nucleation; inactive = no reads after selection;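 note: zero at mode of non-aggregating sequences after 7 days selection at 30°C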
metric name: amyloid nucleation score

NPVRSKWYKVCCDNVGVYMD; inactive
TKNRVYQWMSLSGM; 0.828
WRFQQQAFRYNWPWVILLLV; inactive
LLAVLALVGLC; inactive
ALNSLYTFMDRNNRELECGL; -0.688
NEIQAYIRWSI; inactive
VSYEWPSQMFRPRVPLALAT; inactive
IDKFVRFCIFSWCLMNGDVG; inactive
FCDNQWRHKPTRVTIFFE; inactive
VRLCRGS; inactive
TSVGYNRIMFQERNIHPELN; inactive
EGTKEF; inactive
FVHQRYRAQIIRLLPTSWGC; inactive
SSFPYFTTYVHHVG; inactive
NVIRGGQGLVGPAIMFRDGV; inactive
RVMCTYTRYLWFKFISLMMV; inactive
GVKLVPAAIVGYASLQGL; -0.375

---

method: amyloid nucleation score (Sup35N fusion, yeast selection) (log enrichment); library NNK3; higher = more nucleation; inactive = no reads after selection
metric name: amyloid nucleation score

VLRVLLGFDKFTATISTPDG; 0.323
ILRCVFRGYMYYVMGSFYLT; inactive
PTHILPYLVD; inactive
IPLYHSWSVASLRLRNVVSW; inactive
VMMFSELGCCVLCGPLKDNM; 1.62
KWRYLFDMSW; inactive
EIFVFTM; inactive
RPCNVMEKRDSTNIVTRFT; inactive
RYSRSKIG; inactive
FCYSDLNYRWICYSRDVESS; inactive
DRLPGANICKRRFDMCERKV; inactive
MFGWRNSTLAVKAGSDTRLP; inactive
LRGITLSMQGCTDWFVMYLC; inactive
VVDIKNLYTCLTFCHKYGLN; 0.988
TYRLAVLS; inactive
RITGALRAFGSRTFCASCVC; inactive
AIKYILRAALNLNSSSTELE; inactive

---

method: amyloid nucleation score (Sup35N fusion, yeast selection) (log enrichment); library NNK2; higher = more nucleation; inactive = no reads after selection
Below is a list of entries, each paired with its recorded amyloid nucleation score value.
metric name: amyloid nucleation score

LCWEVRTLEFIGFTQSYGKG; -0.005
VFSPFQFNFWWSFCVNFALV; 4.37
LTIPDFRSGRRRVAQRDLVV; -0.157
WERDTFAVLLVRNFNR; 0.187
DRWGFDFCQLLV; 1.95
HMFPRWPFDVVKKDPTTTHL; 0.31
GNLLLSVITDQL; 4.69
RQIALCGLI; 3.47
RISSSGRP; 2.03
FPVSVTTISPNIYGQPNTWC; -1.41
YRVWWSVIYVKWVG; -0.618
VVTIIRSSVWVSTLCFGFFV; 4.01
WLRLPICDLQLLNWADLRFV; 0.236
NSLYIFMVKYP; 3.96
SLSDELAERNSRCTRLTPWM; 1.61
MFLILMCNCSYVGILRPNST; 6.67
LVNVIS; 0.2
NITKTRHFLSLNYYNVYAFS; 5.05
TDDMCYSEMYIRCVRLFEIV; 2.34
NYHKWNVDSDFVYKGYGGHC; -0.573
FDLAMGVSLVKRLRLVLCLS; -1.12
TRVLYPACVCHGRSISFGVE; 0.134
YPDDLVMPLDDQRCKARLGH; 0.665
VGVIAMPLFLCMGQDSLLFV; 4.6
VWKINISWRPSLSLLVIRLV; -0.594
VSDLLPVSDGSFTNPIVMLV; 0.323
VLPGKVRPFCGSMCNSFFSL; 0.157
RAVHARYLL; 1.86
TGKLCSSIKWWGT; 1.06
FGGIASMMFVEMRRGSINEM; 3.51
IGISYCSRRVIFHGTRKTHS; -0.034
QCLTSRLGSKIVMCKSLDIS; 0.009
VVRYRLCSWMDIMCNVAACQ; 4.27
NEPETLWFLLVVWEGINISP; 0.561
LLGSLLIFPMES; -1.52
